Here's a batch of compounds along with measured Minimum inhibitory concentration, Ec FADDI-EC001 for Enterobacter cloacae.
Positions of bridges follow the written chain, without caps; N, C: chain ends. Non-standard residues stand in square brackets, D forms with d. Residues, ends and D or L forms follow the SMILES beside them. *: point of attachment. Benzoyl(3-CF3) = O=C(c1cccc(C(F)(F)F)c1)*; X15 = O=C(c1ccc(Cl)c(F)c1)*; Decanoyl = CCCCCCCCCC(=O)*; Octanoyl = CCCCCCCC(=O)*; Orn = NCCC[C@H](N)C(=O)O; Dab = NCC[C@H](N)C(=O)O; Abu = CC[C@H](N)C(=O)O; Dap = NC[C@H](N)C(=O)O
Answer as a quantity: numeral, then unit.

Below are worked cases with known answers.
| Compound | Data Value |
| --- | --- |
| CCCCCCCC(=O)N[C@@H](CCCN)C(=O)N[C@H](C(=O)N[C@@H](CCN)C(=O)N[C@H]1CCNC(=O)[C@H]([C@@H](C)O)NC(=O)[C@H](CCN)NC(=O)[C@H](CCN)NC(=O)[C@H]([C@@H](C)O)NC(=O)[C@@H](CC(C)C)NC(=O)[C@H](CCN)NC1=O)[C@@H](C)O [Compound 32] (Octanoyl-[Orn]T[Dab][Dab][Dab][dL]T[Dab][Dab]T; lactam 4-C) | 1 µg/mL |
| CCCCCCCCCC(=O)N[C@@H](CCN)C(=O)N[C@H](C(=O)N[C@H](CO)C(=O)N[C@H]1CCNC(=O)[C@H]([C@@H](C)O)NC(=O)[C@H](CCN)NC(=O)[C@H](CCN)NC(=O)[C@H]([C@@H](C)O)NC(=O)[C@@H](CC(C)C)NC(=O)[C@H](CCN)NC1=O)[C@@H](C)O [Compound 9] (Decanoyl-[Dab]T[dS][Dab][Dab][dL]T[Dab][Dab]T; lactam 4-C) | 0.5 µg/mL |
| CCCCCCCC(=O)N[C@@H](CCN)C(=O)N[C@H](C(=O)N[C@@H](CO)C(=O)N[C@H]1CCNC(=O)[C@H]([C@@H](C)O)NC(=O)[C@H](CCN)NC(=O)[C@H](CCN)NC(=O)[C@H]([C@@H](C)O)NC(=O)[C@@H](CC(C)C)NC(=O)[C@H](CCN)NC1=O)[C@@H](C)O [Compound 4] (Octanoyl-[Dab]TS[Dab][Dab][dL]T[Dab][Dab]T; lactam 4-C) | 0.5 µg/mL |

Problem: Need Minimum inhibitory concentration, Ec FADDI-EC001 of C[C@@H](O)[C@@H]1NC(=O)[C@H](CCN)NC(=O)[C@H](CCN)NC(=O)[C@H]([C@@H](C)O)NC(=O)[C@@H](Cc2ccccc2)NC(=O)[C@H](CCN)NC(=O)[C@@H](NC(=O)[C@H](CN)NC(=O)[C@@H](NC(=O)[C@H](CCN)NC(=O)c2cccc(C(F)(F)F)c2)[C@@H](C)O)CCNC1=O [Compound 124] ({Benzoyl(3-CF3)}-[Dab]T[Dap][Dab][Dab][dF]T[Dab][Dab]T; lactam 4-C) , thanks.
Solution: 0.5 µg/mL

Problem: Next up: CC[C@@H]1NC(=O)[C@@H](CC(C)C)NC(=O)[C@H](CCN)NC(=O)[C@@H](NC(=O)[C@H](CN)NC(=O)[C@@H](NC(=O)[C@H](CCN)NC(=O)c2ccc(Cl)c(F)c2)[C@@H](C)O)CCNC(=O)[C@H]([C@@H](C)O)NC(=O)[C@H](CCN)NC(=O)[C@H](CCN)NC1=O [Compound 107] (X15-[Dab]T[Dap][Dab][Dab][dL][Abu][Dab][Dab]T; lactam 4-C)
Solution: 0.25 µg/mL
